Measured values drawn from patent US3988364A for this set.

experiment: in vivo; type: in vivo; conditions: mouse, in vivo, sc, male ddy mice, subcutaneous injection, Litchfield-Wilcoxon;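 also: animals allocated into more than five groups, with five mice per group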
Where a name gives a salt, the structure may show the parent alone.
Returns: string. Value is Condition met if measured LD50 at 72 h is below 200 mg/kg, and Condition not met if it is greater than or equal to it.

• COc1cccc(N=C(NC2CCCCC2)c2cccc(C)c2)c1.O=C(O)C(=O)O = Condition not met
• Cc1ccc(NC(=NC2CCCCC2)c2ccccc2)cc1 = Condition met
• COc1ccccc1C(=Nc1ccccc1)NC1CCCCC1.Cl = Condition met
• Cc1ccc(N=C(NC2CCCCC2)c2ccccc2C)cc1.Cl = Condition met
• CCc1ccccc1N=C(NC1CCCCC1)c1ccc(C)cc1.Cl = Condition not met
• CCc1ccccc1N=C(NC1CCCCC1)c1cccc(C)c1.Cl = Condition not met
• Cc1ccc(C(=Nc2ccccc2C)NC2CCCCC2)cc1.Cl = Condition not met
• Cc1ccc(C(=NC2CCCCC2)Nc2cccc(C)c2C)cc1 [Compound 31, hydrochloride] = Condition not met
